# Tested on: L1210 leukemia ip in BDF1 mice, survival T/C
# test: NCI In Vivo Anticancer Drug Screen. Data for tumor model L1210 Leukemia (intraperitoneal) in B6D2F1 (BDF1) mice
# recordedConditions: endpoint: mean survival time; dose: 200.0 mg/kg/injection; schedule: Q04DX002 (ip); vehicle: Klucel (hydroxypropylcellulose) (HPC); higher = longer survival
# Description: The antitumor activity of compounds was measured in mice bearing transplantable tumors. Survival or tumor size were measured and the results are expressed as the measurement made in the treated group (T) divided by the measurement made in the vehicle treated control group (C). The tumor model used in this assay is L1210 Leukemia (intraperitoneal) in B6D2F1 (BDF1) mice
Toxic doses and inconclusive results are not listed.

compound | T/C
O=C(O)CCCOc1ccc(Cl)cc1 | 101 % of control
COc1ccc(C(=O)C(=O)c2ccc(OC)cc2)cc1 | 98 % of control
CCOC(=O)c1c(/N=C/c2ccc(N(C)C)cc2)sc2c1CCCC2 | 100 % of control
CCCCCCC1C/C(=C/N(C)C)C(=O)O1 (stereo not given) | 90 % of control
O=C(COc1ccc(Cl)cc1)Oc1c(Cl)c(Cl)c(Cl)c(Cl)c1Cl | 115 % of control
COC(=O)C(=O)CC(=O)c1ccc([N+](=O)[O-])cc1 | 95 % of control
Cn1c(Cl)c(C(=O)O)c2ccccc21 | 101 % of control
CCCCCCCCCCCCC(=O)N(CCCC)CCCC | 96 % of control
CCCCCCP(=S)(CCCC)CCCCCC | 102 % of control
NC(=O)COc1ccc2ccccc2c1Cl | 89 % of control
O=P(O)(CCP(=O)(O)c1ccccc1)c1ccccc1 | 91 % of control
COC(=O)c1cccc(Cl)c1-c1c(Cl)cccc1C(=O)OC | 108 % of control
COc1cc(OC)c(NC(=O)Nc2cc([N+](=O)[O-])ccc2C)cc1Cl | 108 % of control
CCOC(=O)N(CCN1C(=O)c2ccccc2C1=O)c1cc(OC)ccc1OC | 93 % of control
c1ccc2c(-c3c4ccccc4cc4ccccc34)c3ccccc3cc2c1 | 105 % of control
CCCCCCCCCCCCCCCCCCNC(=O)NCCN(C)c1ccccc1 | 112 % of control
O=C(O)Cc1n[nH]c(=O)c2ccccc12 | 99 % of control
CSc1ccc(NC(=O)C2CCCCC2C(=O)O)cc1 (stereo not given) | 111 % of control
O=[N+]([O-])c1ccc2c(c1)-c1ccccc1/C2=C1\c2ccccc2-c2cc([N+](=O)[O-])ccc21 | 104 % of control
Cc1cc(C)nc(NC(=O)Nc2cc(Cl)ccc2C)c1 | 96 % of control
Cc1ccc(-n2cccc2)cc1 | 90 % of control
COc1c(-c2cc(C)nc(NC#N)n2)c(O)c(OC)c2occc12 | 98 % of control
COc1ccc(OC)c(NC(=O)Nc2cc([N+](=O)[O-])ccc2C)c1 | 92 % of control
CC(=O)SCN1C(=O)C2C3CCC(O3)C2C1=O (stereo not given) | 91 % of control
CN(C)c1ccc(SSc2ccc(N(C)C)cc2)cc1 | 102 % of control
